target: JAK2 kinase domain (JH1) (Homo sapiens, UniProt O60674); construct: recombinant purified His or GST-tagged catalytic domain for each enzyme; assay: HTRF-based selectivity assay, JAK2 catalytic domain; settings: recombinant catalytic domain, ATP 14.7 μM
Sequence (O60674 849-1124 limits assumed): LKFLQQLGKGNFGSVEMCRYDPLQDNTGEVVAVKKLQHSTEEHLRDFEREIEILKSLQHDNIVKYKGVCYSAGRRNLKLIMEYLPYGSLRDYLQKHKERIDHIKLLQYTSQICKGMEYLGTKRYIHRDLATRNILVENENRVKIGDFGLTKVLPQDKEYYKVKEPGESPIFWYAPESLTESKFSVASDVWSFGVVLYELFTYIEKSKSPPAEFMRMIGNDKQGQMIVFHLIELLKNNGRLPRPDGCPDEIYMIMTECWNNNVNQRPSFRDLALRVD
pIC50: −log10 of the molar value.
METRIC: pIC50

Here are 5 molecules together with their reported answers.
MOLECULE | pIC50
[2H]C([2H])([2H])NC(=O)c1cnc(Nc2ccc(F)cn2)cc1Nc1cccc2c1N(C)CCn1cnnc1-2 [Compound 79] | < 6.00
[2H]C([2H])([2H])NC(=O)c1nnc(NC(=O)C2CC2)cc1Nc1nccc2c1N(C)Cc1nn(C)nc1-2 [Compound 88] | < 6.00
CNC(=O)c1nnc(NC(=O)C2CC2)cc1Nc1cccc2c1OCCn1cnnc1-2 [Compound 72] | 6.52 to 7.52
[2H]C([2H])([2H])NC(=O)c1nnc(Nc2ccc(C(F)(F)F)cn2)cc1Nc1cccc2c1N(C)Cc1nc(C)nn1-2 [Compound 10] | < 6.00
[2H]C([2H])([2H])NC(=O)c1nnc(NC(=O)C2CC2)cc1Nc1cccc2c1N(C)Cc1nc(C)nn1-2 [Compound 5] | < 6.00

IN: Param readout = pIC50; param system = JAK2 kinase domain (JH1) (Homo sapiens, UniProt O60674); param query = [2H]C([2H])([2H])NC(=O)c1cnc(NC(=O)C2CC2)cc1Nc1cc(F)cc2c1N(C)Cc1nc(C)nn1-2 [Compound 83] ; response: value
OUT: < 6.00

IN: Param readout = pIC50; param system = JAK2 kinase domain (JH1) (Homo sapiens, UniProt O60674); param query = [2H]C([2H])([2H])NC(=O)c1cnc(Nc2cc(C)nc(C)n2)cc1Nc1cccc2c1N(C)CCn1cnnc1-2 [Compound 80] ; response: value
OUT: 6.52 to 7.52

----------
Target: JAK2 kinase domain (JH1) (Homo sapiens, UniProt O60674)
Construct: recombinant purified His or GST-tagged catalytic domain for each enzyme
Assay: HTRF-based selectivity assay, JAK2 catalytic domain
Details: recombinant catalytic domain, ATP 14.7 μM
Description: Example B-2: HTRF-Based Selectivity Assay The ability of compounds to inhibit the activity of JAK1, JAK2, JAK3 and TYK2 is measured using a recombinant purified His or GST-tagged catalytic domain for each enzyme (JAK1, JAK2 and TYK2 are generated in-house; JAK3 was purchased from Carna biosciences, Cat #08-046) in an HTRF format biochemical assay. The reactions employs a commercial peptide substrate from Cisbio (Cat #62TK0PEC). […]
METRIC: IC50

IN: Would you kindly share the measured IC50 for `[2H]C([2H])([2H])NC(=O)c1nnc(NC(=O)C2CC2)cc1Nc1cccc2c1N(C([2H])([2H])[2H])Cc1nn(C)nc1-2` ?
OUT: > 1 µM

IN: Would you kindly share the measured IC50 for `[2H]C([2H])([2H])NC(=O)c1nnc(Nc2ccc(C)cn2)cc1Nc1cccc2c1N(C)Cc1nc(C)nn1-2` ?
OUT: > 1 µM

IN: Would you kindly share the measured IC50 for `[2H]C([2H])([2H])NC(=O)c1nnc(Nc2ccc(C#N)cn2)cc1Nc1cccc2c1N(C)Cc1nc(C)nn1-2` ?
OUT: > 1 µM

----------
molecular target: JAK2 kinase domain (JH1) (Homo sapiens); construct: recombinant purified His or GST-tagged catalytic domain for each enzyme; experiment: HTRF-based selectivity assay, JAK2 catalytic domain; details: recombinant catalytic domain, ATP 14.7 μM
METRIC: IC50

SMILES STR | IC50
[2H]C([2H])([2H])NC(=O)c1cnc(NC(=O)C2CC2)cc1Nc1cccc2c1N(C)C([2H])([2H])c1nn(C)nc1-2 | > 1000 nM
[2H]C([2H])([2H])NC(=O)c1nnc(NC(=O)C2CC2)cc1Nc1nccc2c1N(C)Cc1nc(C)nn1-2 | > 1000 nM
[2H]C([2H])([2H])NC(=O)c1nnc(NC(=O)C2CC2)cc1Nc1cccc2c1N(C)Cc1nn(C)nc1-2 | > 1000 nM

For the next question, use this compound.
IN: Param readout = IC50; param system = JAK2 kinase domain (JH1) (Homo sapiens); param query = `[2H]C([2H])([2H])NC(=O)c1nnc(Nc2ccc(F)cn2)cc1Nc1cccc2c1N(C)Cc1nc(C)nn1-2` ; response: value
OUT: > 1000 nM

----------
biological target: JAK2 kinase domain (JH1) (Homo sapiens, UniProt O60674); construct: recombinant purified His or GST-tagged catalytic domain for each enzyme; test: HTRF-based selectivity assay, JAK2 catalytic domain; conditions: recombinant catalytic domain, ATP 14.7 μM
pIC50: −log10 of the molar value.
METRIC: pIC50

MOLECULE | pIC50
CNC(=O)c1nnc(Nc2ccc(F)cn2)cc1Nc1cccc2c1OCCn1cnnc1-2 [Compound 73] | 6.00 to 6.52
CNC(=O)c1nnc(Nc2ccc(F)cn2)cc1Nc1cccc2c1N(C)CCn1cnnc1-2 [Compound 76] | 6.00 to 6.52

For the next question, use this molecule.
IN: Would you kindly share the measured pIC50 for [2H]C([2H])([2H])NC(=O)c1cnc(NC(=O)C2CC2)cc1Nc1cccc2c1N(C)Cc1ncnn1-2 [Compound 6] ?
OUT: < 6.00
